Assay: Compound concentration in mouse brain and plasma
Assay type: in vivo
Conditions: mouse, brain/plasma; 5 minutes after a single intravenous injection of 1 mg/kg in mice; read-out: Mean Ratio (brain/plasma)
measured_quantity: Kp at 5 min
# answer = number (no unit)

# count of solved cases: 5
O=C(Nc1ccc(SC(F)(F)F)cc1)c1cccc(-c2cncnc2)c1 | 4.99
O=C(Nc1ccc(OC(F)(F)Cl)cc1)c1cccc(-c2cncnc2)c1 | 3.24
O=C(Nc1ccc(OC(F)(F)F)cc1)c1cncc(-c2cccnc2)c1 | 3.29
COc1ncc(-c2cc(C(=O)Nc3ccc(OC(F)(F)F)cc3)ccc2C)cn1 | 1.29
Cc1ccc(C(=O)Nc2ccc(OC(F)(F)F)cc2)cc1-c1cncs1 | 2.3

Here is another compound to look at.
Problem: Using the record for "Cc1ccc(C(=O)Nc2ccc(OC(F)(F)F)cc2)cc1-c1cccnc1" , state its measured Kp at 5 min.
Result: 3.2

----------
Biological target: ABL1 (64-515) (Homo sapiens (Human), UniProt P00519)
Sequence (P00519 64-515): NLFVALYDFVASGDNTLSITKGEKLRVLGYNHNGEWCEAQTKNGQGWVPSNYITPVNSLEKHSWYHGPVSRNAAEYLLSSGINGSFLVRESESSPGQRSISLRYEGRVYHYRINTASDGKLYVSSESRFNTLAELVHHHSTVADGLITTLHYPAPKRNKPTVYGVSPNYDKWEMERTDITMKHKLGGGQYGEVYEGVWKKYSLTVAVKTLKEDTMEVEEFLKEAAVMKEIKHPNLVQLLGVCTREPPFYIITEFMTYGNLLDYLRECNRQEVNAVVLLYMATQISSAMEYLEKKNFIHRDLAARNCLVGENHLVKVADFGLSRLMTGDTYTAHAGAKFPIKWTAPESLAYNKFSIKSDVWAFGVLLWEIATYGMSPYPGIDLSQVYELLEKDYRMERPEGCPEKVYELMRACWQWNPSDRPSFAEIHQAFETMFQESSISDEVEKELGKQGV
Assay: Radio ABL1 (64-515) assay (radiometric filter-binding)
Format: biochemical
Item-by-item account of IC50
Value expressed in µM; do not type the unit.

CCOc1ncc(C(=O)Nc2ccc(OC(F)(F)F)cc2)cc1-c1cncnc1 | 0.049
O=C(Nc1ccc(OC(F)(F)F)cc1)c1ccc(Cl)c(-c2cccnc2)c1 | 0.013
Cc1ncc(C(=O)Nc2ccc(OC(F)(F)F)cc2)cc1-c1cncnc1 | 0.003
O=C(Nc1ccc(OC(F)(F)F)c(F)c1)c1cccc(-c2cncnc2)c1 | 0.022

Here is another compound to look at.
Problem: Using the record for "O=C(Nc1ccc(OC(F)(F)F)cc1)c1cccc(-c2cnccn2)c1" , state its measured IC50.
Result: 0.0031

----------
Test: Compound concentration in mouse brain and plasma
Type: in vivo
Settings: 5 minutes after a single intravenous injection of 1 mg/kg in mice
Item-by-item account of Mean brain (drug concentration in brain)
Write the numeric value and append its unit.

# count of solved cases: 5
O=C(Nc1ccc(SC(F)(F)F)cc1)c1cccc(-c2cncnc2)c1 [Example 11] | 7341 pmol/g
Cc1ccc(C(=O)Nc2ccc(OC(F)(F)F)cc2)cc1-c1cncs1 [Example 17] | 6985 pmol/g
Cc1ccc(C(=O)Nc2ccc(OC(F)(F)F)cc2)cc1-c1cccnc1 [Example 15] | 6847 pmol/g
COc1ccc(C(=O)Nc2ccc(OC(F)(F)F)cc2)cc1-c1cncnc1 [Example 30] | 4471 pmol/g
O=C(Nc1ccc(OC(F)(F)Cl)cc1)c1cccc(-c2cncnc2)c1 [Example 10] | 4093 pmol/g

Problem: Using the record for O=C(Nc1ccc(OC(F)(F)F)cc1)c1cncc(-c2cccnc2)c1 [Example 74] , state its measured Mean brain (drug concentration in brain).
Result: 8509 pmol/g

Problem: Using the record for COc1ncc(-c2cc(C(=O)Nc3ccc(OC(F)(F)F)cc3)ccc2C)cn1 [Example 13] , state its measured Mean brain (drug concentration in brain).
Result: 4011 pmol/g

Problem: Using the record for O=C(Nc1ccc(OC(F)(F)F)cc1)c1cccc(-c2cncnc2)c1 [Example 1] , state its measured Mean brain (drug concentration in brain).
Result: 4946 pmol/g

----------
Biological target: ABL1 (64-515) (Homo sapiens (Human))
Test: Radio ABL1 (64-515) assay (radiometric filter-binding)
Format: biochemical
measured_quantity: pIC50
Friendly reminder that pIC50 comes from taking -log10 of the concentration in mol/L.

Cn1cc(-c2cc(C(=O)Nc3ccc(OC(F)(F)F)cc3)ccc2F)cn1 | 7.46
O=C(Nc1ccc(OC(F)(F)F)cc1)c1ccnc(-c2cncnc2)c1 | 7.89
O=C(Nc1ccc(OC(F)(F)F)cc1)c1cncc(-c2cncnc2)n1 | 6.18

Problem: Lab note: record pIC50 of "O=C(Nc1ccc(OC(F)(F)Cl)cc1)c1cnc(OC2CCOCC2)c(-c2cncnc2)c1" tested on ABL1 (64-515) (Homo sapiens (Human)).
Result: 8.92

Problem: Lab note: record pIC50 of "O=C(Nc1ccc(OC(F)(F)F)cc1)c1ccc(O)c(-c2cncnc2)c1" tested on ABL1 (64-515) (Homo sapiens (Human)).
Result: 7.89

Problem: Lab note: record pIC50 of "O=C(Nc1ccc(OC(F)(F)F)cc1)c1cccc(-c2cncnc2)n1" tested on ABL1 (64-515) (Homo sapiens (Human)).
Result: 6.16

----------
Target: ABL1 (64-515) (Homo sapiens (Human))
Experiment: Caliper ABL1 (64-515) assay (microfluidic mobility shift)
Assay type: biochemical
Item-by-item account of pIC50
Friendly reminder that pIC50 comes from taking -log10 of the concentration in mol/L.

# count of solved cases: 3
O=C(Nc1ccc(OC(F)(F)F)cc1)c1cnc(Cl)c(-c2cncc(F)c2)c1 [Example 77] | 8.31
O=C(Nc1ccc(OC(F)(F)F)cc1)c1cncc(-c2cnn(CCO)c2)c1 [Example 64] | 6.70
O=C(Nc1ccc(OC(F)(F)F)cc1)c1cnc(Cl)c(-c2cncnc2)c1 [Example 56] | 8.00

Here is another compound to look at.
Problem: Using the record for O=C(Nc1ccc(OC(F)(F)F)cc1)c1cnc(OC2CCOCC2)c(-c2cncnc2)c1 [Example 53] , state its measured pIC50.
Result: 7.66

----------
Item-by-item account of IC50
Target: ABL1 (64-515) (Homo sapiens (Human), UniProt P00519)
Assay: Radio ABL1 (64-515) assay (radiometric filter-binding)
Format: biochemical

# count of solved cases: 10
O=C(Nc1ccc(OC(F)(F)F)cc1)c1ccc(OCCN2CCOCC2)c(-c2cncnc2)c1 | 3.6 nM
COCCOc1ncc(C(=O)Nc2ccc(OC(F)(F)F)cc2)cc1-c1cncnc1 | 63 nM
COc1ncc(C(=O)Nc2ccc(OC(F)(F)F)cc2)cc1-c1cncnc1 | < 3 nM
O=C(Nc1ccc(OC(F)(F)F)cc1)c1cnc(Cl)c(-c2cncnc2)c1 | 10 nM
O=C(Nc1ccc(OC(F)(F)F)cc1)c1cnc(Cl)c(-c2ncc[nH]2)c1 | 5 nM
Nc1ncc(-c2cncc(C(=O)Nc3ccc(OC(F)(F)F)cc3)c2)cn1 | 3.5 nM
Cc1ccc(C(=O)Nc2ccc(OC(F)(F)F)cc2)cc1-c1cncnc1 | 8.5 nM
COc1ncccc1-c1cncc(C(=O)Nc2ccc(OC(F)(F)F)cc2)c1 | 69 nM
O=C(Nc1ccc(OC(F)(F)Cl)cc1)c1cccc(-c2cncnc2)c1 | 9.5 nM
Cc1ccc(C(=O)Nc2ccc(OC(F)(F)F)cc2)cc1-n1ccnc1 | 4 nM

Problem: Lab note: record IC50 of "O=C(Nc1ccc(OC(F)(F)F)cc1)c1ccc(OCCO)c(-c2cncnc2)c1" tested on ABL1 (64-515) (Homo sapiens (Human), UniProt P00519).
Result: < 3 nM

Problem: Lab note: record IC50 of "O=C(Nc1ccc(OC(F)(F)F)cc1)c1cnc(OCCO)c(-c2cncnc2)c1" tested on ABL1 (64-515) (Homo sapiens (Human), UniProt P00519).
Result: 23 nM
